Entries and their pKd
- Method Summary: 3H-heparin binding assay (affinity and capacity)
- Condition Parameters: read-out: Heparin Affinity
Ends that are not written are not given here.
Note on pKd: it is the negative log10 of concentration, concentration in mol/L.

Q) Field request: pKd | item: KSKAGWLIQLFHKK [BPI.34]
A) 6.29

====

- Tested on: RAW 264.7 cells
- Method Summary: LPS neutralization cellular proliferation assay, RAW 264.7 cells
- Format: cell-based, mouse
Ends that are not written are not given here.
Experimental Readout: IC50 (peptide concentration at which RAW cell growth was inhibited by 50%) (µg/mL)
Entry rule: numbers only, all in µg/mL.

# Substance, Observed Value
data = [
    ("KWKAAARFLKKWKAQKRFLK [BPI.46]", 18.8),
    ("KSKVGWLIQLFHKKKWKAQKRFLK [BPI.74]", 18.8),
    ("KWKAQKRFLKKSKVGWLIQLFHKK-NH2 (C-terminus assumed) [BPI.30]", 10.5),
    ("KWKAAARFLKKWKAAARFLKKWKAAARFLK [BPI.69]", 2.4),
    ("KWKAQKRFLKKWKAAARFLK [BPI.47]", 9.8),
]

Q) If you can, please state the reported IC50 (peptide concentration at which RAW cell growth was inhibited by 50%) value of KSKVGWLIQLWHKK [BPI.82] .
A) 18.8

Q) Which IC50 (peptide concentration at which RAW cell growth was inhibited by 50%) value belongs to KSKVGWLIQLFHKF [BPI.96] ?
A) 18.8

Q) # lookup: IC50 (peptide concentration at which RAW cell growth was inhibited by 50%) of KSKVGWLIQLFHKKKSKVGWLIQLFHKK-NH2 (C-terminus assumed) [BPI.29]
A) 13.6

Q) # get_value(readout='IC50 (peptide concentration at which RAW cell growth was inhibited by 50%)', item= IKISGKWKAQKRFLKKSKVGWLIQLFHKK [BPI.63] )
A) 7.1

Q) Form field: reported IC50 (peptide concentration at which RAW cell growth was inhibited by 50%) of IKISGKWKAFKRFLK [BPI.81]
A) 14

Q) Entry under review: KWKAAARFLKKWKAAARFLK [BPI.48] . Reported IC50 (peptide concentration at which RAW cell growth was inhibited by 50%)?
A) 5.0

Q) So what's the measured IC50 (peptide concentration at which RAW cell growth was inhibited by 50%) for this one? IKISGKWKAFFRFLK [BPI.88]
A) 6.2
